# Measured Target: hA2a/CHO (Homo sapiens (Human))
# Sequence (P29274 whole entry): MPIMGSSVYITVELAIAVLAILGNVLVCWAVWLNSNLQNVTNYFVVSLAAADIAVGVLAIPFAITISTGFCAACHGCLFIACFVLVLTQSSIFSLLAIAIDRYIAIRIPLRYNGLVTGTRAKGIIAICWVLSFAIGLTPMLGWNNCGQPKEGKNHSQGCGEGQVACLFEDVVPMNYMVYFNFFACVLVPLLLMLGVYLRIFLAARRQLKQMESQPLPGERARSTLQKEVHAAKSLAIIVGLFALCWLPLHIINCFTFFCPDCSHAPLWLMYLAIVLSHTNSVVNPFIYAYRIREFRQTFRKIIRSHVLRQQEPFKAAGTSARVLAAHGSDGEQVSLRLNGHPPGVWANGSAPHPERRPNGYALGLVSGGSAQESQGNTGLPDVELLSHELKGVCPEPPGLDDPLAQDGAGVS
# Protocol Details: cAMP inhibition assay in hA2a/CHO cells, 10 μM adenosine;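 note: compounds added to cells 30 min ahead of adenosine, then a further 30 min at 37 °C with adenosine before cAMP detection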
# Type: cell-based
# Test Conditions: read-out: cAMP & FLIPR IC50 (nM) hA2a
The following compounds are listed with their measured IC50 values.
Readout: IC50 (nM)

>  <Compound>
CCc1cnn2ccc(-c3nc(C(=O)NC[C@H]4CCCN4C)c(N)nc3-c3ncco3)cc12

>  <U>
nM

>  <Number>
63

$$$$
>  <Compound>
Cc1cnc2ccc(-c3nc(C(=O)NC[C@H]4CCCN4C)c(N)nc3-c3cccc(F)c3)cn12

>  <U>
nM

>  <Number>
6.2

$$$$
>  <Compound>
Nc1nc(-c2ccc(F)cc2)c(-c2ccc(=O)n(C3COC3)c2)nc1C(=O)NCc1c(F)cccc1F

>  <U>
nM

>  <Number>
17

$$$$
>  <Compound>
Cc1ccc(-c2nc(N)c(CNC(=O)c3c(F)cccc3F)nc2-c2ccc(=O)n(C)c2)o1

>  <U>
nM

>  <Number>
15

$$$$
>  <Compound>
Cc1cnc2ccc(-c3nc(C(=O)N4CC[C@@H](N(C)C)C4)c(N)nc3-c3ccc(F)cc3)cn12

>  <U>
nM

>  <Number>
15

$$$$
>  <Compound>
Cc1ccn(-c2nc(N)c(C(=O)Nc3ccccc3OC(F)F)nc2-c2ccc(=O)n(C)c2)n1

>  <U>
nM

>  <Number>
29

$$$$
>  <Compound>
CNc1cccc(CNC(=O)c2nc(-c3ccc4nccn4c3)c(-c3ncco3)nc2N)n1

>  <U>
nM

>  <Number>
5.1

$$$$
>  <Compound>
COCCn1cc(-c2nc(C(=O)NCc3c(F)cccc3F)c(N)nc2-c2ncco2)ccc1=O

>  <U>
nM

>  <Number>
38

$$$$
>  <Compound>
Cc1cnc2ccc(-c3nc(C(=O)NCc4cccc(N5CCC(N(C)C)C5)n4)c(N)nc3-c3ncco3)cn12 (single isomer, unassigned) [Cmpd. 232]

>  <U>
nM

>  <Number>
0.5

$$$$
>  <Compound>
Cc1cnc2ccc(-c3nc(C(=O)NCc4cccc(N5CCN(C)[C@H](C)C5)n4)c(N)nc3-c3ncco3)cn12

>  <U>
nM

>  <Number>
4.5

$$$$
>  <Compound>
COc1ccccc1C(=O)NCc1nc(-c2cc(C)nc(C)c2)c(-c2ccc(F)cc2)nc1N

>  <U>
nM

>  <Number>
5

$$$$
>  <Compound>
Cc1cnc2ccc(-c3nc(C(=O)NC(C)C4CCCO4)c(N)nc3-c3ncco3)cn12 (single isomer, unassigned; isomer 1) [Example 266]

>  <U>
nM

>  <Number>
7.6

$$$$
>  <Compound>
Cc1cnc2ccc(-c3nc(C(=O)NCCN(C)C)c(N)nc3-c3ncco3)cn12

>  <U>
nM

>  <Number>
19

$$$$
>  <Compound>
COc1ccccc1CNC(=O)c1nc(-c2cc(C)nc(C)c2)c(-n2cccn2)nc1N

>  <U>
nM

>  <Number>
28

$$$$
>  <Compound>
CN1CCCC1CNC(=O)c1nc(-c2ccc3ncc(C(F)(F)F)n3c2)c(-c2ncco2)nc1N (single isomer, unassigned) [Cmpd. 206]

>  <U>
nM

>  <Number>
5.3

$$$$
